Parameter pIC50, tested on NEP from human kidney (Homo sapiens), listed per item.
Sequence (P08473 whole entry): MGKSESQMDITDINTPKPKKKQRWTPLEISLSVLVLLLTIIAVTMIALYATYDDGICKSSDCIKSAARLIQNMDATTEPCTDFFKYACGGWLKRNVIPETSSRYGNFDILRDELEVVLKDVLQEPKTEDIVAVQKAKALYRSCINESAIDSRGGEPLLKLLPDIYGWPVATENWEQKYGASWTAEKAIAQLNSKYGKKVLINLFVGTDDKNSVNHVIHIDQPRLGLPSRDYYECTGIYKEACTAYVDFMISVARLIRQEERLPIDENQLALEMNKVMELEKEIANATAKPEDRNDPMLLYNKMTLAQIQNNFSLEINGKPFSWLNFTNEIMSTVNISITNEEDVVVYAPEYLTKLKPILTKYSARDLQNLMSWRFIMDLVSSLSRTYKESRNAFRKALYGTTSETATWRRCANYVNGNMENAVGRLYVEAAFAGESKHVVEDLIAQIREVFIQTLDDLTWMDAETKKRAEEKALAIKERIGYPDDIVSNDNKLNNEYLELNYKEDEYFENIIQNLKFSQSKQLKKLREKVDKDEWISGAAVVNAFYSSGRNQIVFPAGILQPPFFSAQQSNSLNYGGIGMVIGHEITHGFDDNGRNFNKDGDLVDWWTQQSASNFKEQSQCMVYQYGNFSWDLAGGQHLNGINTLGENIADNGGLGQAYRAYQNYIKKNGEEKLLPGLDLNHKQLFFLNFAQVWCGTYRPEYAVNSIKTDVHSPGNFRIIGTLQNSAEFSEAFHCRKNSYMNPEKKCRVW
Here pIC50 is given on a logarithmic scale as minus log10 of the concentration in mol/L.

COCC[C@H](CC1(C(=O)N[C@@H](Cc2ncc(-c3ccc(F)cc3)o2)C(=O)O)CCCC1)C(=O)O: 9.52

Query: Please tell me: pIC50 of CCC[C@H](CC1(C(=O)N[C@@H](Cc2ncc(-c3ccccc3)o2)C(=O)O)CCCC1)C(=O)O , system NEP from human kidney (Homo sapiens)?
Result: 9.15

These measurements were taken from patent US20040138274A1.
